- System: RAW264.7
- experiment: Cytotoxicity against mouse RAW264.7 cells assessed as cell viability at IC50 by colorimetric assay
- Type: cell-based

| compound | experimental-target | Activity |
| --- | --- | --- |
| CC1=CCCC2[C@@]1(C)[C@@H](OC(=O)c1ccccc1)[C@H](OC(=O)c1cccnc1)[C@](C)(O)[C@]2(C)/C=C/C1=CC(=O)OC1 (stereo partly drawn) | RAW264.7 | Non-toxic |
| CC(=O)O[C@@H](CC1=C(O)C(=O)OC1)[C@]1(C)C2CCC=C(C)[C@]2(C)[C@@H](OC(=O)c2cccnc2)[C@H](O)[C@]1(C)O (stereo partly drawn) | RAW264.7 | Non-toxic |
| CC1=CCCC2[C@@]1(C)[C@@H](OC(=O)c1cccnc1)[C@H](O)[C@]1(C)O[C@]3(COC(=O)C3)C[C@H](OC(=O)c3cccnc3)[C@]21C (stereo partly drawn) | RAW264.7 | Non-toxic |

----------
- Test system: RAW264.7
- experiment: Inhibition of LPS-induced nitric oxide production in mouse RAW264.7 cells after 24 hrs by Griess reaction
- Type: functional, cell-based
- condition: RAW264.7, 24 h
pIC50: −log10 of the molar value.
Recorded measurements of pIC50, one per entry

Consider the worked cases shown below.
| compound | experimental-target | reported-metric | val |
| --- | --- | --- | --- |
| CC(=O)O[C@@H](CC1=C(O)C(=O)OC1)[C@]1(C)C2CCC=C(C)[C@]2(C)[C@@H](OC(=O)c2cccnc2)[C@H](OC(=O)c2ccccc2)[C@]1(C)O (stereo partly drawn) | RAW264.7 | pIC50 | < 4.30 |
| C=C1CCCC2[C@@]1(C)[C@@H](OC(=O)c1ccccc1)[C@H](O)[C@]1(C)O[C@]3(COC(=O)C3)C[C@H](OC(=O)c3ccccc3)[C@]21C (stereo partly drawn) | RAW264.7 | pIC50 | 4.69 |

For the next question, use this compound.
In: What value of pIC50 has been recorded for this entry: CC(=O)O[C@@H](CC1=C(O)C(=O)OC1)[C@]1(C)C2CCC=C(C)[C@]2(C)[C@@H](OC(=O)c2cccnc2)[C@H](O)[C@]1(C)O (stereo partly drawn)
Out: < 4.30

----------
- System: RAW264.7
- experiment: Inhibition of LPS-induced nitric oxide production in mouse RAW264.7 cells after 24 hrs by Griess reaction
- Format: functional, cell-based
- condition: RAW264.7, 24 h
pIC50: −log10 of the molar value.
Recorded measurements of pIC50, one per entry

Consider the worked cases shown below.
| molecule | pIC50 |
| --- | --- |
| CC1=CC[C@@H](OC(=O)c2ccccc2)C2[C@@]1(C)[C@@H](OC(=O)c1cccnc1)[C@H](OC(=O)c1ccccc1)[C@]1(C)O[C@]3(CC[C@]21C)COC(=O)C3 (stereo partly specified) | < 4.30 |
| CC1=CC[C@@H](OC(=O)c2ccccc2)C2[C@@]1(C)[C@@H](OC(=O)c1cccnc1)[C@H](OC(=O)c1cccnc1)[C@]1(C)O[C@]3(CC[C@]21C)COC(=O)C3 (stereo partly specified) | 4.69 |
| CC1=CCCC2[C@@]1(C)[C@@H](OC(=O)c1cccnc1)[C@H](O)[C@]1(C)O[C@]3(COC(=O)C3)C[C@H](OC(=O)c3cccnc3)[C@]21C (stereo partly specified) | < 4.30 |
| C[C@@]12[C@@H](OC(=O)c3cccnc3)[C@H](OC(=O)c3ccccc3)[C@](C)(O)[C@](C)(/C=C/C3=CC(=O)OC3)[C@H]1CC=C[C@]2(C)O | < 4.30 |
| CC(=O)O[C@@H](CC1=C(O)C(=O)OC1)[C@]1(C)C2CCC=C(C)[C@]2(C)[C@@H](OC(=O)c2cccnc2)[C@H](OC(=O)c2cccnc2)[C@]1(C)O (stereo partly specified) | < 4.30 |

For the next question, use this molecule.
In: What value of pIC50 has been recorded for this entry: CC(=O)O[C@H]1[C@H](OC(C)=O)[C@]2(C)O[C@]3(CC[C@]2(C)C2[C@H](OC(=O)c4ccccc4)CC=C(C)[C@@]21C)COC(=O)C3 (stereo partly specified)
Out: < 4.30

Cited source for all entries: ChEMBL document CHEMBL3608204
